# target-or-test-system: hOX2R (Homo sapiens)
# Construct: expressed in transfected cells
# Sequence (O43614 1-444): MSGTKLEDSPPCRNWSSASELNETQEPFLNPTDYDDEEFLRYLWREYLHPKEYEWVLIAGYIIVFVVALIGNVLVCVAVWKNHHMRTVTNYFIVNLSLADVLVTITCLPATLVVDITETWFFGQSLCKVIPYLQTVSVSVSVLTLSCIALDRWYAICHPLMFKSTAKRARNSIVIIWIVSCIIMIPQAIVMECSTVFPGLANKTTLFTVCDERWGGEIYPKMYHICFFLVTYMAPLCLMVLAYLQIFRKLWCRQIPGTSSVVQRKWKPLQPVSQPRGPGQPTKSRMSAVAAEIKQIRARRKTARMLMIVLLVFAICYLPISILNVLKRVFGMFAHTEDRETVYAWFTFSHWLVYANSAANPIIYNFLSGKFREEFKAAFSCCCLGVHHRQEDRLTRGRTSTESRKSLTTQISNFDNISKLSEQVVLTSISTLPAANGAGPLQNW
# protocol-description: In vitro test of OX2R: calcium signal change in cells detected with FLIPR
# Assay type: cell-based
# condition: HEK293-OX2 stable cell strain, Fluo-4 AM calcium signal, Orexin A at EC70; read-out: IC50 detected in FLIPR, hOX2R
# Description: The inhibitive effect of a compound on OX1 and OX2 GPCR receptor was evaluated by detecting calcium signal change in cells with FLIPR, and IC50 value of compound was used as an indication. […] c) FLIPR Experiment: • 1) The cell culture medium in 384-well plate was washed away with a vacuum pump. […] The program was run and the fluorescence values were read. d) Data Analysis: Prism5.0 was used to analysis the data, and the IC50 value of the compound was calculated.
IC50 overview
Answer format: numeric, nM implied, no suffix.

Would you please look over these solved cases?
Cc1ccc(-n2nccn2)c(C(=O)N2C3CCC(COc4ccc(F)cn4)C2CC3)c1 (single isomer, unassigned) [Example 3] = 1420
Cc1ccc(-c2ncccn2)c(C(=O)N2C3CC[C@H]2CC[C@@H]3COc2ccncc2)c1 = 6

IN: Could you tell me which IC50 is on file for Cc1ccc(-c2ncccn2)c(C(=O)N2C3CCC(COc4ccc(F)cn4)C2CC3)c1 (single isomer, unassigned) [Example 8] ?
OUT: 4610

IN: Another compound to look at: `Cc1ccc(-c2ncccn2)c(C(=O)N2C3CC[C@H]2CC[C@@H]3COc2ccc(F)cc2)c1`
OUT: 121

----------
# target-or-test-system: hOX1R (Homo sapiens, UniProt O43613)
# Construct: expressed in transfected cells
# Sequence (O43613 whole entry): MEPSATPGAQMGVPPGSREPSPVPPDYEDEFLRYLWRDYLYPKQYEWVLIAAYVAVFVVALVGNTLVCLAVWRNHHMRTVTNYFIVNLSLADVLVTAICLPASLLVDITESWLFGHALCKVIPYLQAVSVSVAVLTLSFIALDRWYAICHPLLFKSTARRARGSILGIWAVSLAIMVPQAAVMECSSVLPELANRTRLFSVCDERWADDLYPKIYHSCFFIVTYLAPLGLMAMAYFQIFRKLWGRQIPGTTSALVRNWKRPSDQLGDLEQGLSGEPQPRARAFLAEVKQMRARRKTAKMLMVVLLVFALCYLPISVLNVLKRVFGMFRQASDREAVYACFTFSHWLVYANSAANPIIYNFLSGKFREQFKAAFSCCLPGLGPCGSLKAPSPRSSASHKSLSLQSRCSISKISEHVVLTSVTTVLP
# protocol-description: In vitro test of OX1R: calcium signal change in cells detected with FLIPR
# Assay type: cell-based
# condition: IC50 detected in FLIPR, hOX1R, HEK293-OX1 stable cell strain, Fluo-4 AM calcium signal, Orexin A at EC70
pIC50 overview
Reminder that pIC50 is minus the log10 of a molar concentration.

Would you please look over these solved cases?
Cc1ccc(-c2cncnc2)c(C(=O)N2C3CCC2[C@@H](COc2ccc(F)cn2)CC3)c1 (stereo partly shown) = 5.64
O=C(c1cc(F)ccc1-n1nccn1)N1C2CC[C@H]1CC[C@@H]2COc1ccc(F)cn1 = 7.80

IN: Could you tell me which pIC50 is on file for Cc1ccc(-c2ncccn2)c(C(=O)N2C3CCC(C(=O)Nc4ccccc4O)C2CC3)c1 (stereo not shown) ?
OUT: 5.52

IN: Another compound to look at: Cc1ccc(-c2ncccn2)c(C(=O)N2C3CCC(c4nc5ccccc5o4)C2CC3)c1 (stereo not shown)
OUT: 7.47

IN: Another compound to look at: `O=C(c1c(F)cccc1-n1nccn1)N1C2CC[C@H]1CC[C@@H]2COc1ccc(F)cn1`
OUT: 7.62
